# TGI values compiled below
- Tested on: SW-620 colon
- protocol.description: NCI tumour cell line growth inhibition, 48 h
measured.quantity: TGI

[[record]]
molecule = "O=C(Nc1sccc1S(=O)(=O)c1ccc(Cl)cc1)c1ccc(Cl)cc1"
result = "> 100 µM"

[[record]]
molecule = "O=C1CSC(c2ccc([N+](=O)[O-])cc2)N1c1nc(-c2ccc3c(c2)CCCC3)cs1 (stereo not drawn)"
result = "> 100 µM"

[[record]]
molecule = "O=C(O)CNS(=O)(=O)c1ccc(NC(=O)c2ccccc2[N+](=O)[O-])cc1"
result = "> 100 µM"

[[record]]
molecule = "CCOC(=O)C(C)c1nc2cc(N3CCOCC3)c(F)cc2[nH]c1=O (stereo not drawn)"
result = "> 100 µM"

[[record]]
molecule = "COc1cc(COC(=O)N2CSCC2C(=O)O)c([N+](=O)[O-])cc1OC (stereo not drawn)"
result = "> 100 µM"

[[record]]
molecule = "CCCCCC(/C=C/[C@@H]1[C@H]2CC(=O)O[C@H]2C[C@H]1N1CCOCC1)OC1CCCO1 (stereo partly drawn)"
result = "> 100 µM"

[[record]]
molecule = "NC(=O)c1c(Br)n(C2OC(CO)C(O)C2O)c2ncnc(N)c12 (stereo not drawn)"
result = "9.87 µM"

[[record]]
molecule = "CCN(CC)CC1CCCCN1CC(=O)N1c2ccccc2NC(=O)c2ccccc21 (stereo not drawn)"
result = "> 100 µM"

[[record]]
molecule = "CCc1cccc(C)c1NC(=O)CCc1n[nH]c(=S)o1"
result = "28 µM"

[[record]]
molecule = "O=C(O)C(F)(F)C(F)(F)C(F)(F)C(F)(F)C(F)(F)C(F)(F)C(F)(F)C(F)(F)F"
result = "> 100 µM"

[[record]]
molecule = "COc1ccc([C@H]2CC(=O)C[C@H](c3ccc(OC)cc3OC)C23C(=O)c2ccccc2C3=O)c(OC)c1"
result = "> 100 µM"

[[record]]
molecule = "COc1ccc(C2=C(c3cn(C)c4ccccc34)C(=O)OC2)cc1OC"
result = "> 100 µM"

[[record]]
molecule = "c1ccc(C2N=NN(c3ccccc3)C2N2CCCCC2)cc1 (stereo not drawn)"
result = "> 100 µM"


###

- Tested on: U251 CNS
Labels: 1.0 (active), 0.0 (inactive)

[[record]]
molecule = "COc1cc(-c2nn(-c3ccc(NC(=O)NCCNS(=O)(=O)c4ccc(F)cc4)cc3)cc2-c2ccncc2)ccc1Cl"
group_label = 1.0

[[record]]
molecule = "O=S(=O)(Nc1ccc(Cl)c(F)c1)c1ccc(-c2cnc(C3CC3)o2)cc1"
group_label = 0.0

[[record]]
molecule = "CN1C[C@@H](c2ccc(Cl)cc2)[C@]2(NC(=S)N(c3ccc(F)c(Cl)c3)C2=O)[C@@]12C(=O)NC1C=CC(Cl)=C[C@H]12 (stereo not given in full)"
group_label = 0.0

[[record]]
molecule = "C/C=C/C1=CN2C(=O)c3cc(OC4OC(C)C(NC)C(C)(O)C4O)c(C)cc3N=C[C@@H]2C1 (stereo not given in full)"
group_label = 1.0

[[record]]
molecule = "C=CC(C)c1cccc(C=O)c1O (stereo not given)"
group_label = 0.0


###

Below, each entry is listed alongside its reported TGI.
- System: SNB-19 CNS
- protocol.description: NCI tumour cell line growth inhibition, 48 h
measured.quantity: TGI

[[record]]
molecule = "c1ccc(C2N=NN(c3ccccc3)C2N2CCCCC2)cc1 (configuration not stated)"
measured_quantity = "TGI"
result = "> 100 µM"

[[record]]
molecule = "COc1ccc(-c2nc(N3CCCC3)no2)cc1"
measured_quantity = "TGI"
result = "> 100 µM"

[[record]]
molecule = "COC(=O)Cc1c(-c2[nH]c3ccccc3c2CC(=O)OC)[nH]c2ccccc12"
measured_quantity = "TGI"
result = "> 100 µM"

[[record]]
molecule = "Oc1ccc[n+](Cc2ccccc2)c1"
measured_quantity = "TGI"
result = "> 100 µM"

[[record]]
molecule = "Nc1nc2ccc(NCc3ccc(C(=O)NC(CCC(=O)O)C(=O)O)cc3)cc2c(=O)[nH]1 (configuration not stated)"
measured_quantity = "TGI"
result = "> 100 µM"

[[record]]
molecule = "COc1ccc2c(c1)N=C(N)n1c(nc3ccccc31)S2"
measured_quantity = "TGI"
result = "> 100 µM"

[[record]]
molecule = "Cc1ccc(C2C3Cc4ccccc4C3=NN2c2ccc(S(=O)(=O)NC(=O)NC3CCCCC3)cc2)cc1 (configuration not stated)"
measured_quantity = "TGI"
result = "64 µM"

[[record]]
molecule = "O=C(Nc1ccc(F)cc1F)c1cc(F)ccc1O"
measured_quantity = "TGI"
result = "> 100 µM"

[[record]]
molecule = "COc1ccc(NC(=S)Nc2ccccc2)cc1"
measured_quantity = "TGI"
result = "> 100 µM"

[[record]]
molecule = "CCn1nc(-c2ccc(C(=O)OC)cc2)nc2c(=O)n(C)c(=O)nc1-2"
measured_quantity = "TGI"
result = "2.37 µM"

[[record]]
molecule = "N#C/C(=C\\Nc1ccccn1)C(=O)C1CC1"
measured_quantity = "TGI"
result = "> 100 µM"

[[record]]
molecule = "COC(=O)[C@]1(c2cc3ccccc3[nH]2)CC2CN(C(=O)OCc3ccccc3)C1C=C2OC (some centres not stated)"
measured_quantity = "TGI"
result = "> 100 µM"

[[record]]
molecule = "COc1ccc(C2=C(c3cn(C)c4ccccc34)C(=O)OC2)cc1OC"
measured_quantity = "TGI"
result = "> 100 µM"

[[record]]
molecule = "O=C(O)C(F)(F)C(F)(F)C(F)(F)C(F)(F)C(F)(F)C(F)(F)C(F)(F)C(F)(F)F"
measured_quantity = "TGI"
result = "> 100 µM"

[[record]]
molecule = "c1ccc2nc(-c3ccc4c(c3)OCO4)ccc2c1"
measured_quantity = "TGI"
result = "> 100 µM"

[[record]]
molecule = "O=C(Nc1c(O)[nH]c(=S)[nH]c1=O)c1ccco1"
measured_quantity = "TGI"
result = "> 100 µM"

[[record]]
molecule = "COc1cccc(/C=C2\\COc3ccc(O)c(O)c3C2=O)c1"
measured_quantity = "TGI"
result = "5.07 µM"

[[record]]
molecule = "CCOC(=O)C(C)c1nc2cc(N3CCOCC3)c(F)cc2[nH]c1=O (configuration not stated)"
measured_quantity = "TGI"
result = "> 100 µM"

[[record]]
molecule = "C[C@]12CCC(=O)C[C@H]1CCC(O)[C@@H]2Br (some centres not stated)"
measured_quantity = "TGI"
result = "> 100 µM"

[[record]]
molecule = "O=C1C(Cl)C(c2cc(Br)ccc2O)N1n1cnc2ccccc2c1=O (configuration not stated)"
measured_quantity = "TGI"
result = "> 62.9 µM"

[[record]]
molecule = "COc1ccc(C2Oc3ccc(Cl)cc3C=C2[N+](=O)[O-])cc1OC (configuration not stated)"
measured_quantity = "TGI"
result = "5.02 µM"

[[record]]
molecule = "COc1ccc(/C=C/c2cc(OC)c(OC)c(OC)c2)cc1O[Si](C)(C)C(C)(C)C"
measured_quantity = "TGI"
result = "> 100 µM"

[[record]]
molecule = "COc1ccc2c(c1)O/C(=C\\c1ncc([N+](=O)[O-])n1C)C2=O"
measured_quantity = "TGI"
result = "6.26 µM"

[[record]]
molecule = "CCOC(=O)C(=Cc1ccccc1Cl)C(=O)OCC"
measured_quantity = "TGI"
result = "3.53 µM"

[[record]]
molecule = "Cn1c(=O)c2[nH]c(CSCc3ccccc3)nc2n(C)c1=O"
measured_quantity = "TGI"
result = "> 100 µM"

[[record]]
molecule = "Cc1ccc(Nc2nc3ccccc3c(=O)n2N)cc1"
measured_quantity = "TGI"
result = "> 100 µM"

[[record]]
molecule = "CC(C)CC(NC(=O)C(Cc1ccccc1)NC(=O)[C@H]1CC[C@H](NC(=O)C(Cc2ccc(OC(C)(C)C)cc2)NC(=O)OC(C)(C)C)C1)C(N)=O (some centres not stated)"
measured_quantity = "TGI"
result = "53.9 µM"

